Recorded solubility kinetic by entry
conditions: buffer; pH 7.4; 200.0 µM
metric: solubility kinetic (µg/mL)

compound	readout-units	sign	result-number
CN1CC(=O)Nc2ccccc2C1=O	µg/mL	>	28.5
COc1ccc(C(=S)N2CCOCC2)cc1OC(=O)c1ccccc1	µg/mL	=	23.6
CSCCC(NC(=O)c1ccccc1)C(=O)OCC(=O)NCc1ccco1 (stereo unspecified)	µg/mL	>	58.6
O=C1CCCN1C(=O)CSc1ccc2ccccc2n1	µg/mL	=	41.9
CC(=O)c1c(-c2ccc(Cl)cc2Cl)noc1C	µg/mL	=	17.5
COc1ccc(CNC(=O)CCc2c[nH]c3ccccc23)cc1	µg/mL	=	24.6

The values you see were collected from PubChem BioAssay AID1996.
